Reference source: patent US20260125454A1

# Assay System: T1, Biotin-1-19 polypeptide (human, disulfide 2-7; not fully specified (N-terminus); printed as Biotin-Linker(G5)-ACDTATCVTHRLAGLLSRS; ends not checked; also: biotin, position not given here)
# T1 construct: also called fragment CGRP (1-19); truncated (1-19) CGRP
# T1 peptide: ACDTATCVTHRLAGLLSRS
# Protocol Notes: ELISA, transfection supernatant, biotin-CGRP(1-19) on streptavidin
# Procedure: Streptavidin was diluted to 0.5 μg/mL by using PBS (Hyclone) and added into a plate at 100 μL/well. The plate was incubated in a thermostat incubator at 37° C. for 90 min and then washed. […] Finally, a 2 M hydrochloric acid solution was added at 100 μL/well to stop the reaction while avoiding bubbles, and the plates were read on a microplate reader within 10 min (the detection wavelength was 450 nm; the reference wavelength was 620 nm).
Bridges are numbered along the chain shown (N, C = ends). Where no end group is shown, it is not given here.
Measured Metric: OD value (OD)
Numbers only, in OD.

q: What measured OD value goes with C253 (antibody, V domains shown, 3C1-HC + 3H10-LC2; chimeric, human constant regions) VH: EVQLQQSGPELVKPGASMKISCKASGYSFTGYTMNWVKQSHGNNLEWIGLINPYIGNTHYNQKFKDKATFTVDRSSSTAYMALLSLTSEDSAVYYCARELDSGFDYWGQGTTLTVSS VL: DIVLTQSPDSLAVSLGQRATISCKASQNIDYGGYSYMNWYQQKPGQPPKVLIYSVFNLESGIPARFSGSGSGTDFTLTIHPVEEEDAATYYCQQSNEAPYTFGGGTKLEIR ?
a: 2.94
